Each item that follows carries a reported inhibition at 1 µM.
Biological target: panel of 255 wild-type kinases (Homo sapiens)
Assay: Kinase panel profiling at 1 µmol/L (MSA or IMAP), percentage inhibition
Format: biochemical
Details: PASK; 1 µmol/L single concentration; read-out: %-inhibition, PASK
Enter your answer as a number in %; do not include the unit.

>  <smilesRecord>
Cn1cc(-c2cc3c(N4CCN(c5ncc([C@@](C)(N)c6ccc(F)cc6)cn5)CC4)ncnn3c2)cn1

>  <unitText>
%

>  <inhibition at 1 µM>
13

$$$$
>  <smilesRecord>
Cc1cc(Nc2ncnc3ccc(NC4=NC(C)(C)CO4)cc23)ccc1Oc1ccn2ncnc2c1

>  <unitText>
%

>  <inhibition at 1 µM>
0.181

$$$$
>  <smilesRecord>
CCc1nc(C(N)=O)c(Nc2ccc(N3CCC(N4CCN(C)CC4)CC3)c(OC)c2)nc1NC1CCOCC1

>  <unitText>
%

>  <inhibition at 1 µM>
2.54

$$$$
>  <smilesRecord>
C=CC(=O)N1CCC([C@@H]2CCNc3c(C(N)=O)c(-c4ccc(Oc5ccccc5)cc4)nn32)CC1

>  <unitText>
%

>  <inhibition at 1 µM>
-2.55

$$$$
>  <smilesRecord>
Cc1nc(NC(=O)N2CCC[C@H]2C(N)=O)sc1-c1ccnc(C(C)(C)C(F)(F)F)c1

>  <unitText>
%

>  <inhibition at 1 µM>
-2

$$$$

// next entry
Problem: Quick check: inhibition at 1 µM of "COc1ccc(CN2C3CC2CN(c2ccc(-c4cc(OCC(C)(C)O)cn5ncc(C#N)c45)cn2)C3)cn1" ?
Result: -2.29

----------
Biological target: UniProt P16234
Sequence (P16234 24-1089): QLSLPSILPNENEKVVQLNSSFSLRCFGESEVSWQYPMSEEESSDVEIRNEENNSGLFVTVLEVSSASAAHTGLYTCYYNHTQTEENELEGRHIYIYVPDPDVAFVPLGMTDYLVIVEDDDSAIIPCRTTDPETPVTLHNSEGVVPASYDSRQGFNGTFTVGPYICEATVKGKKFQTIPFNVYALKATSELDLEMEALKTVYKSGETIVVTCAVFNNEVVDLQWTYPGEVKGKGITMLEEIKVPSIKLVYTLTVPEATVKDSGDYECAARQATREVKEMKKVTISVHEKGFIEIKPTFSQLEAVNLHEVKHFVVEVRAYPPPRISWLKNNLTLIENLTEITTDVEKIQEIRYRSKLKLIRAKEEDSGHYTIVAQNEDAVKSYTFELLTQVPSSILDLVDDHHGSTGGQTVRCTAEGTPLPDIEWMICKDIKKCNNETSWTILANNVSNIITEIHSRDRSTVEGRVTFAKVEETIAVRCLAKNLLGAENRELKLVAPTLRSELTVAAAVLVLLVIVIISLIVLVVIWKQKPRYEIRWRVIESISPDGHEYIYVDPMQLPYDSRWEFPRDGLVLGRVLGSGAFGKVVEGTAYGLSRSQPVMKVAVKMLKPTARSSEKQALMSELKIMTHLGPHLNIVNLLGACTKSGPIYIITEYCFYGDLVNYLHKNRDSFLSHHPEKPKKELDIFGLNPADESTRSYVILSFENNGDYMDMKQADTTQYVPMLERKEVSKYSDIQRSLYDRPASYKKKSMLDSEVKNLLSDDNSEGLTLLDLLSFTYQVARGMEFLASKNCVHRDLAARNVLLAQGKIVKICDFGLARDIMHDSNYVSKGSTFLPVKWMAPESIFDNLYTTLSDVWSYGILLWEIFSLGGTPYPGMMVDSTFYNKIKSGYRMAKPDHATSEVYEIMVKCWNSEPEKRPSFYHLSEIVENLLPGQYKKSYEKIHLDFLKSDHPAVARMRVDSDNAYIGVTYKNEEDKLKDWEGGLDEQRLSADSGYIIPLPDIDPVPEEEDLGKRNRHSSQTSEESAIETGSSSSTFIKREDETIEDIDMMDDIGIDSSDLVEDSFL
Assay: Kinase panel profiling at 1 µmol/L (MSA or IMAP), percentage inhibition
Type: biochemical
Settings: kinase PDGFRα; 1 µmol/L single concentration; read-out: %-inhibition at 1 µmol/L, PDGFRα
propertyLabel: inhibition at 1 µM (%)
Use % as the unit, but write only the number.

Example entries and their recorded answers appear below.
>  <compound>
Cn1cnc2c(F)c(Nc3ccc(Br)cc3Cl)c(C(=O)NOCCO)cc21 [selumetinib]

>  <inhibition at 1 µM (%)>
25

$$$$
>  <compound>
COc1ccc(CN2C3CC2CN(c2ccc(-c4cc(OCC(C)(C)O)cn5ncc(C#N)c45)cn2)C3)cn1 [selpercatinib]

>  <inhibition at 1 µM (%)>
96

$$$$

Now examine the next entry.
Problem: What inhibition at 1 µM appears in the records for this compound with UniProt P16234? COC(=O)N[C@@H](C)CNc1nccc(-c2cn(C(C)C)nc2-c2cc(Cl)cc(NS(C)(=O)=O)c2F)n1 [encorafenib]
Result: 4

----------
Catalogue of inhibition at 1 µM values
Target: panel of 255 wild-type kinases (Homo sapiens, UniProt Q02763)
Sequence (Q02763 23-1124): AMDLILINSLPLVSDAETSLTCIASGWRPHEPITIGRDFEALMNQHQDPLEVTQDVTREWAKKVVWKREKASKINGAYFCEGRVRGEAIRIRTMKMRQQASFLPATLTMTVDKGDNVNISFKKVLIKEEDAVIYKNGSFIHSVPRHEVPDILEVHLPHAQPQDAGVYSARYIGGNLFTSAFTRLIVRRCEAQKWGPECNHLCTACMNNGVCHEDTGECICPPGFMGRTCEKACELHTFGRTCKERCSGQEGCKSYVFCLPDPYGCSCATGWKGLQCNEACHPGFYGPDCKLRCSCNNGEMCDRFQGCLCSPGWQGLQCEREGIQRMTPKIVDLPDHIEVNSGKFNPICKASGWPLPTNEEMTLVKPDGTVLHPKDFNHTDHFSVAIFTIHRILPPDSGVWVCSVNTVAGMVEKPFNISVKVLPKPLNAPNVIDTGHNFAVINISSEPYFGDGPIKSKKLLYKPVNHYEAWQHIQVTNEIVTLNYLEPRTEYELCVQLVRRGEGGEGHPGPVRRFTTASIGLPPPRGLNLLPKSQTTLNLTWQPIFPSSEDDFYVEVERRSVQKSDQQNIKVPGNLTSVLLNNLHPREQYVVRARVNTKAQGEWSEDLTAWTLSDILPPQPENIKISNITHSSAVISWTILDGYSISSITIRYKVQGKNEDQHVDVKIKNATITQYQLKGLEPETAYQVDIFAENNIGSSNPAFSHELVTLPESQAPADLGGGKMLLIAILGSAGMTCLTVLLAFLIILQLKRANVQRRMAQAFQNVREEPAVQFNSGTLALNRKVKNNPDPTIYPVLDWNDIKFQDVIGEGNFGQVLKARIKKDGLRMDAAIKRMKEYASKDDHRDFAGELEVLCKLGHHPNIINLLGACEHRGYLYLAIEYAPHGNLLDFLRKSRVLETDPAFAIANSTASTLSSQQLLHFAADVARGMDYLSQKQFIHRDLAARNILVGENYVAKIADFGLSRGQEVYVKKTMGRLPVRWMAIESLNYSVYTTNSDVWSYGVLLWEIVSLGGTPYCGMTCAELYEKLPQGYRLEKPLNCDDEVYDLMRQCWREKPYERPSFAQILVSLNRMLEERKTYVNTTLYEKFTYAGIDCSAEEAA
Test: Kinase panel profiling at 1 µmol/L (MSA or IMAP), percentage inhibition
Assay type: biochemical
Details: kinase TIE2; 1 µmol/L single concentration; read-out: %-inhibition at 1 µmol/L, TIE2
Quick reminder: number only, in %, skip the unit.

Guide cases for inhibition at 1 µM, answers given:
>  <compound>
COC(=O)N[C@@H](C)CNc1nccc(-c2cn(C(C)C)nc2-c2cc(Cl)cc(NS(C)(=O)=O)c2F)n1 [encorafenib]

>  <system>
panel of 255 wild-type kinases (Homo sapiens, UniProt Q02763)

>  <unitText>
%

>  <inhibition at 1 µM>
6

$$$$
>  <compound>
COc1ccc(CN2C3CC2CN(c2ccc(-c4cc(OCC(C)(C)O)cn5ncc(C#N)c45)cn2)C3)cn1 [selpercatinib]

>  <system>
panel of 255 wild-type kinases (Homo sapiens, UniProt Q02763)

>  <unitText>
%

>  <inhibition at 1 µM>
43

$$$$
>  <compound>
Cc1nc(NC(=O)N2CCC[C@H]2C(N)=O)sc1-c1ccnc(C(C)(C)C(F)(F)F)c1 [alpelisib]

>  <system>
panel of 255 wild-type kinases (Homo sapiens, UniProt Q02763)

>  <unitText>
%

>  <inhibition at 1 µM>
-0.712

$$$$

Problem: Returns the measured inhibition at 1 µM for the input compound. Input: CN1CCN(c2ccc(C(=O)Nc3n[nH]c4ccc(Cc5cc(F)cc(F)c5)cc34)c(NC3CCOCC3)c2)CC1 [entrectinib]
Result: 72

Problem: What does the record list as inhibition at 1 µM for CCN1CCN(c2ccc(Nc3cc(N(C)C(=O)Nc4c(Cl)c(OC)cc(OC)c4Cl)ncn3)cc2)CC1 [infigratinib] ?
Result: 63
